Would you mind telling me the reported pIC50 of each entry?
# study_target: T1, cMet/Fc (UniProt P08581 25-932)
# T1 construct: not shown: Fc part not specified
# T1 sequence (P08581 25-932): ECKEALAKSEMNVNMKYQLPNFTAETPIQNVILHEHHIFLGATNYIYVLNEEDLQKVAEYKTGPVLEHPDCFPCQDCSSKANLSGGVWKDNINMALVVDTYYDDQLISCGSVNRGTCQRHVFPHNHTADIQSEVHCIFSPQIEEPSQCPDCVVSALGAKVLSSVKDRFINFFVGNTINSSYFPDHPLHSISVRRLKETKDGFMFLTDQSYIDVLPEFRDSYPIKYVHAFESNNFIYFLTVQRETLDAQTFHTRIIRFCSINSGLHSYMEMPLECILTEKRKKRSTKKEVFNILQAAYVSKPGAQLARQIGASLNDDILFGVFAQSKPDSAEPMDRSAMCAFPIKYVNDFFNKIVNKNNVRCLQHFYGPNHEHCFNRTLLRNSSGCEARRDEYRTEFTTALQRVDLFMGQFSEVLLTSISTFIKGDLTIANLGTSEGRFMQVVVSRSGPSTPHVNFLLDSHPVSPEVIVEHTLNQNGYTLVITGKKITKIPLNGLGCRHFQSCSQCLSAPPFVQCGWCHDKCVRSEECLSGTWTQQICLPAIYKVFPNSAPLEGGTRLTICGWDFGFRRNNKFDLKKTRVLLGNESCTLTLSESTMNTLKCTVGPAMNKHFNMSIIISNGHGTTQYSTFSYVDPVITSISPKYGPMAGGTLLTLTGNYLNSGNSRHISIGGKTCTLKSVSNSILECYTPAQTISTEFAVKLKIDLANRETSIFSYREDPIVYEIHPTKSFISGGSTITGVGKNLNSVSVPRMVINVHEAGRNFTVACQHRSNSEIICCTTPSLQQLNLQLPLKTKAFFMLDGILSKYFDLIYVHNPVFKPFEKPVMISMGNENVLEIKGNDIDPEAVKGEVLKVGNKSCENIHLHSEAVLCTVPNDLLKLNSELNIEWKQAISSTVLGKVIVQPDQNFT
# assay_explanation: HGF-competition Alphascreen, monovalent form
// pIC50 is dimensionless: -log10 of concentration (M)

Inquiry: Any idea what its pIC50 is? The binder is A007901260, monovalent form (VHH, anti-c-MET Nanobody) VHH: DVQLVESGGGLVQPGGSLRLSCAASGFAFDDYAIGWFRQAPGEERLGVSSISSTYGLTYYADSVKGRFTISSDNSKNTVYLQMNSLRPEDTAVYYCAATPIGLIGLDAYEYDYWGQGTLVTVSS
Reply text: 10.46

Inquiry: # pIC50 lookup, item A007901255, monovalent form (VHH, anti-c-MET Nanobody) VHH: DVQLVESGGGLVQPGGSLRLSCAASGFTFDDYAIGWFRQAPGEEREGVSSISSTYGLTYYADSVKGRFTISSDNSKNTVYLQMNSLRPEDTAVYYCAATPIGLIGLDAYEYDYWGQGTLVTVSS
Reply text: 10.04

Inquiry: Reported pIC50 for A007901259, monovalent form (VHH, anti-c-MET Nanobody) VHH: DVQLVESGGGLVQPGGSLRLSCAASGFTFDDYAIGWFRQAPGEERLGVSSISSTYGLTYYADSVKGRFTISSDNSKNTVYLQMNSLRPEDTAVYYCAATPIGLIGLDAYEYDYWGQGTLVTVSS : what is it?
Reply text: 10.37

Inquiry: Can you look up the measured pIC50 of A007901256, monovalent form (VHH, anti-c-MET Nanobody) VHH: DVQLVESGGGLVQPGGSLRLSCAASGFAFDDYAIGWFRQAPGEEREGVSSISSTYGLTYYADSVKGRFTISSDNSKNTVYLQMNSLRPEDTAVYYCAATPIGLIGLDAYEYDYWGQGTLVTVSS for me?
Reply text: 10.32

Reference source for all entries: patent US20140205597A1
